Below is a list of entries, each paired with its recorded pIC50 value.
Target: NOX2 (Homo sapiens)
Construct: isolated plasma membranes from human neutrophils as a source for Nox2-p22phox; cytosolic factors recombinant from E. coli
Sequence (P04839 2-570 limits assumed): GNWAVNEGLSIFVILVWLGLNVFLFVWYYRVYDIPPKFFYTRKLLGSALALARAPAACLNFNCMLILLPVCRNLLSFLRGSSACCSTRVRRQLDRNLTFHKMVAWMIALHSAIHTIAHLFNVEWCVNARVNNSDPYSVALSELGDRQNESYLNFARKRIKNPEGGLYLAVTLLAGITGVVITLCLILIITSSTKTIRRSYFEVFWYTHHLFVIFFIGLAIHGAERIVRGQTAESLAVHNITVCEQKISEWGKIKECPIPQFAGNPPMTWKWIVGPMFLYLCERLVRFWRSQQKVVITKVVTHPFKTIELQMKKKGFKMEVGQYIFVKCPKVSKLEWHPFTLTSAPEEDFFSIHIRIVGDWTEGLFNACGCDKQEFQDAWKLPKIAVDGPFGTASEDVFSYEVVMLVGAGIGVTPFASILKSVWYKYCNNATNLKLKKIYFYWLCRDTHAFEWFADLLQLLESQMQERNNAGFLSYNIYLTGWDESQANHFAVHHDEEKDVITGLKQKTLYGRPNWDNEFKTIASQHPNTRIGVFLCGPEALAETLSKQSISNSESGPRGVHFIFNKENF
Sequence (P13498 2-195 partner limits assumed): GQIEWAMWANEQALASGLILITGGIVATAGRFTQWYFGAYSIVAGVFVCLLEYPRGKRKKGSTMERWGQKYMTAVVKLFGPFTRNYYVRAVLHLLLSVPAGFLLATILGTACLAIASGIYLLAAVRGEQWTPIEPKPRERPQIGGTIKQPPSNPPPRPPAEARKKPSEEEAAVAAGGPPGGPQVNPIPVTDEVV
Test: Nox2 cell-free assay (LO12 luminescence)
Details: Nox2 cell-free system; read-out: NOX2 IC50 (concentration giving half-maximal inhibition)
# pIC50: negative log10 of molar concentration; output just the value

COc1cc2[nH]c(=S)n(CCCCN)c(=O)c2cc1OC: 6.00
CN(C)CCCn1c(SCC(=O)Nc2cc(-c3ccc(Cl)cc3)no2)nc2ccccc2c1=O [AS154b]: 5.10
CN1CCN(CCCn2c(=S)[nH]c3ccccc3c2=O)CC1: 5.52
COc1ccc(N2CCN(CCn3c(=S)[nH]c4cc(OC)c(OC)cc4c3=O)CC2)cc1: 6.15
CC(C)n1c(=S)[nH]c2cc3c(cc2c1=O)OCCO3: 6.15

Query: Name the reported pIC50 value associated with the compound O=c1c2ccccc2[nH]c(=S)n1CCCN1CCOCC1 [TG6-54]
Response: 5.70

Query: Name the reported pIC50 value associated with the compound CCSC1Nc2ccccc2C(=O)N1CCC[N+]1(CC)CCOCC1 (stereo not shown)
Response: 5.82

Query: Name the reported pIC50 value associated with the compound CN(C)c1cccc(-n2c(=S)[nH]c3ccc(Cl)cc3c2=O)c1
Response: 5.89

----------
Below is a list of entries, each paired with its recorded Emax value.
Target: NOX2 (Homo sapiens)
Construct: isolated plasma membranes from human neutrophils as a source for Nox2-p22phox; from tissue; host or cells: Plasma membranes of human neutrophils (Nox2-p22phox); cytosolic factors recombinant from E. coli
Sequence (P04839 2-570 limits assumed): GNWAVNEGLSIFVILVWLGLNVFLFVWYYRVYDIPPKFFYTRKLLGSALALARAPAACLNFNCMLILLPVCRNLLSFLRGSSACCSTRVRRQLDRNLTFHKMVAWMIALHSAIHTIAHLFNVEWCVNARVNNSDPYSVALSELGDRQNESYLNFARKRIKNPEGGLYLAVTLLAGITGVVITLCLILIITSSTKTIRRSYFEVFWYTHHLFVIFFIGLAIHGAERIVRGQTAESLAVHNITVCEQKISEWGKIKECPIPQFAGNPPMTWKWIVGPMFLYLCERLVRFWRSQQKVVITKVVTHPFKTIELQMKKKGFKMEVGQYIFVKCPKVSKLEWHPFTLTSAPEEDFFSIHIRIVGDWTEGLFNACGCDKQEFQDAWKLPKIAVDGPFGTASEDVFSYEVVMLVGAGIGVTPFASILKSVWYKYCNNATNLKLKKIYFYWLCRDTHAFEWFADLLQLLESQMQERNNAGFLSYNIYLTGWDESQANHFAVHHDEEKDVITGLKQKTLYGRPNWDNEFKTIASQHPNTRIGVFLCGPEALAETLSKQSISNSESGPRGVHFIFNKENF
Sequence (P13498 2-195 partner limits assumed): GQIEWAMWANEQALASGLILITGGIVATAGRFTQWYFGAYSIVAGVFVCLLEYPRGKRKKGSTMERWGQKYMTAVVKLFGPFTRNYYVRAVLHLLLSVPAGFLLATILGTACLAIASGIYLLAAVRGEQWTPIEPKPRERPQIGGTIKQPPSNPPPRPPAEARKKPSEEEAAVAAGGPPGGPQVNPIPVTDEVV
Assay: Nox2 cell-free assay (LO12 luminescence)
Type: biochemical
Conditions: Nox2 cell-free system; value in parentheses; read-out: % inhibition (maximum inhibition achieved at a very high concentration of the compound)
Only the number, expressed in %, is required.

Examples from the recorded data:
COc1ccc(-c2csc(NC(=O)CSc3nc4ccccc4c(=O)n3CCCN(C)C)n2)cc1 [TG6-36-2]: 95
CN(C)CCCn1c(=S)[nH]c2ccc(Cl)cc2c1=O.Cl [TG6-44]: 100
CN(C)CCCn1c(SCC(=O)Nc2nc(-c3ccc(Br)cc3)cs2)nc2ccccc2c1=O [AS158a]: 100

Query: Name the reported Emax value associated with the molecule CCN(CC)CCCn1c(SCC(=O)Nc2nc(-c3cccc(C(F)(F)F)c3)cs2)nc2ccccc2c1=O [AS165b]
Response: 80

Query: Name the reported Emax value associated with the molecule CSc1nc2ccc(Cl)cc2c(=O)n1CCC[N+](C)(C)C [TG6-59]
Response: 75

----------
Biological target: NOX2 (Homo sapiens, UniProt P04839)
Construct: isolated plasma membranes from human neutrophils as a source for Nox2-p22phox; cytosolic factors recombinant from E. coli
Experiment: Nox2 cell-free assay (LO12 luminescence)
Settings: Nox2 cell-free system; read-out: NOX2 IC50 (concentration giving half-maximal inhibition)
Below is a list of entries, each paired with its recorded pIC50 value.
# pIC50: negative log10 of molar concentration; output just the value

Examples from the recorded data:
CN(C)CCCn1c(SCC(=O)Nc2nc(-c3ccc(Br)cc3)cs2)nc2ccccc2c1=O [TG6-37-2]: 5.22
O=c1c2ccccc2[nH]c(=S)n1CCN1CCCCC1 [TG6-53]: 5.82
COC(=O)c1ccc2c(=O)n(N(C)C)c(=S)[nH]c2c1 [AS-266]: 5.22
COc1cc2[nH]c(=S)n(CCCO)c(=O)c2cc1OC [AS-270]: 6.00
CCCn1c(=S)[nH]c2ccc(Cl)cc2c1=O [TG6-280]: 5.10

Query: Name the reported pIC50 value associated with the molecule CN(C)CCCCn1c(SCC(=O)Nc2nc(-c3cccc(Br)c3)cs2)nc2ccccc2c1=O [AS195]
Response: 5.52

Query: Name the reported pIC50 value associated with the molecule CN(C)CCCn1c(=S)[nH]c2ccc(Cl)cc2c1=O.Cl [TG6-44]
Response: 6.00

Query: Name the reported pIC50 value associated with the molecule CN(C)CCCCCn1c(=S)[nH]c2ccccc2c1=O [TG6-41]
Response: 5.30

Query: Name the reported pIC50 value associated with the molecule O=c1c2ccccc2[nH]c(=S)n1CCN1CCCC1 [TG6-52]
Response: 5.70

Query: Name the reported pIC50 value associated with the molecule CCN(CC)CCn1c(=S)[nH]c2ccc(Cl)cc2c1=O [TG6-57]
Response: 5.22

Query: Name the reported pIC50 value associated with the molecule CN(C)CCCn1c(SCC(=O)Nc2nc(-c3cccc(Br)c3)cs2)nc2ccc(Cl)cc2c1=O [TG6-58]
Response: 5.30

Query: Name the reported pIC50 value associated with the molecule Nn1c(=S)[nH]c2cc3c(cc2c1=O)OCO3 [AS2-014b]
Response: 6.22

Query: Name the reported pIC50 value associated with the molecule CSc1nc2ccc(Cl)cc2c(=O)n1CCC[N+](C)(C)C [TG6-59]
Response: 5.52

Query: Name the reported pIC50 value associated with the molecule COc1cc2[nH]c(=S)n(O)c(=O)c2cc1OC [AS-271]
Response: 5.70

Query: Name the reported pIC50 value associated with the molecule CN1CCC(n2c(=S)[nH]c3ccccc3c2=O)CC1 [TG6-33-2]
Response: 6.00

Query: Name the reported pIC50 value associated with the molecule Nn1c(=S)[nH]c2ccccc2c1=O [AS-247]
Response: 5.74

Query: Name the reported pIC50 value associated with the molecule CSc1nc2ccc(F)cc2c(=O)n1CCC[N+](C)(C)C [TG6-103-2]
Response: 6.00

Query: Name the reported pIC50 value associated with the molecule CN(C)CCCn1c(=S)[nH]c2cc(Cl)ccc2c1=O [TG6-62]
Response: 5.30

Query: Name the reported pIC50 value associated with the molecule CN(C)CCn1c(=S)[nH]c2ccccc2c1=O [TG6-35-2]
Response: 5.40
